- testSystem: Acetylcholinesterase (Electrophorus electricus, UniProt O42275)
- Sequence (O42275 whole entry): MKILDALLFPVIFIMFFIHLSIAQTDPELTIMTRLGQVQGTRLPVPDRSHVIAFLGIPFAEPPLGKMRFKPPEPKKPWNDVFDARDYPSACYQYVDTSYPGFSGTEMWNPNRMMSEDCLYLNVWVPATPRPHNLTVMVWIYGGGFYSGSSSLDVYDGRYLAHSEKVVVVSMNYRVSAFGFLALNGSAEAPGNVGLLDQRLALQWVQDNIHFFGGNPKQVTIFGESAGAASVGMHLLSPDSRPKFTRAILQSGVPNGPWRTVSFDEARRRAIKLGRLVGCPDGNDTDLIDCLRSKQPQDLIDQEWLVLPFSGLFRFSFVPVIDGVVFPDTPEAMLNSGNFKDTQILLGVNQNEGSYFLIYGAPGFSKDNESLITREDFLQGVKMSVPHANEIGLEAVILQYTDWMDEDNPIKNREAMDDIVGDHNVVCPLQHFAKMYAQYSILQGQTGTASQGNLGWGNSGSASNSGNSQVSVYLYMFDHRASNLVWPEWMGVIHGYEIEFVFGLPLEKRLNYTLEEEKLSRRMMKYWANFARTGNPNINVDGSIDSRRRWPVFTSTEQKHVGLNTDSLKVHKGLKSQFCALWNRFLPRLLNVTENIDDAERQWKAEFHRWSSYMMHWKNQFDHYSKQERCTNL
Hi! Just check whether IC50 is below 2 µM. Below gives YES, equal or above gives NO.

// below: answered compounds
Cc1c(C)c2ccc(OCCNC3CCN(Cc4ccccc4)CC3)cc2oc1=O | YES
Cc1cc(=O)oc2cc(CNCCC3CCN(Cc4ccccc4)CC3)ccc12 | YES
O=c1cc(Cl)c2ccc(OCCNC3CCN(Cc4ccccc4)CC3)cc2o1 | YES
Cc1cc(=O)oc2cc(OCCNC3CCN(Cc4ccccc4)CC3)ccc12 | NO

Continue with the next compound.
## Input Lab log: compare recorded IC50 with 2 µM; is it strictly lower for "Cc1c(Cl)c(=O)oc2cc(OCCNC3CCN(Cc4ccccc4)CC3)ccc12" ?
## Output YES

====

- assayName: Hepatotoxicity against human HepG2 cells assessed as cell viability at 25 uM after 24 hrs by MTT assay
- Type: toxicity, cell-based
- conditionSet: read-out: Activity
measurementType: viability at 24 h, 25 µM (%)
Quick note: give the figure in %, leave out the unit.

## Input Provide one value: measured viability at 24 h, 25 µM of "O=c1oc2cc(OCCNC3CCN(Cc4ccccc4)CC3)ccc2c2c1CCCC2"
## Output 105

====

The next entries give measured IC50 for UniProt P81908.
Sequence (P81908 whole entry): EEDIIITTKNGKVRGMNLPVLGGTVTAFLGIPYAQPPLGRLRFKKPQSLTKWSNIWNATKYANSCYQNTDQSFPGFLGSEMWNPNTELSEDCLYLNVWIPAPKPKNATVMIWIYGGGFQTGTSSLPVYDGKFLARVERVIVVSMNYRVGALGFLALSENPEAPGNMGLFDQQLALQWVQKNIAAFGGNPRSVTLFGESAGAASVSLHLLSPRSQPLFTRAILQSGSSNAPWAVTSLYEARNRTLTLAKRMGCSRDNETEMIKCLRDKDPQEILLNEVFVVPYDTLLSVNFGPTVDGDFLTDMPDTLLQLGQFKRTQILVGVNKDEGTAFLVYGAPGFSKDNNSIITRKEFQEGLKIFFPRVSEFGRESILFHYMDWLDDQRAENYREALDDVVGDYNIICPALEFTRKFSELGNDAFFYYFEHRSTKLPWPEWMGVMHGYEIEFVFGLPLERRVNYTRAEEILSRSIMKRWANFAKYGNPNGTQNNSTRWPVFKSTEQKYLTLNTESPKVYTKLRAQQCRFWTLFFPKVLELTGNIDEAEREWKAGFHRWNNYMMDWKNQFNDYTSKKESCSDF
Quick note: give the figure in µM, leave out the unit.

These recorded examples may help you get a feel for the data.
O=c1cc(-c2ccccc2)c2ccc(OCCNC3CCN(Cc4ccccc4)CC3)cc2o1 | 8.93
O=c1ccc2ccc(OCCNCCC3CCN(Cc4ccccc4)CC3)cc2o1 | 9.79
O=c1ccc2ccc(OCCNC3CCN(Cc4ccccc4)CC3)cc2o1 | 5.34
Cc1cc(=O)oc2cc(OCCNC3CCN(Cc4ccccc4)CC3)ccc12 | 4.38
Cc1cc(=O)oc2cc(CNCCC3CCN(Cc4ccccc4)CC3)ccc12 | 0.96

## Input Provide one value: measured IC50 of "O=c1cc(Cl)c2ccc(OCCNC3CCN(Cc4ccccc4)CC3)cc2o1"
## Output 1.48

## Input Provide one value: measured IC50 of "O=c1oc2cc(OCCNC3CCN(Cc4ccccc4)CC3)ccc2c2c1CCCC2"
## Output 0.93

## Input Provide one value: measured IC50 of "COc1cc(=O)oc2cc(OCCNC3CCN(Cc4ccccc4)CC3)ccc12"
## Output 5.64

## Input Provide one value: measured IC50 of "Cc1c(C)c2ccc(OCCNC3CCN(Cc4ccccc4)CC3)cc2oc1=O"
## Output 1.67

## Input Provide one value: measured IC50 of "O=c1ccc2ccc(OCCCNC3CCN(Cc4ccccc4)CC3)cc2o1"
## Output 9.86

## Input Provide one value: measured IC50 of "O=c1cc(C(F)(F)F)c2ccc(OCCNC3CCN(Cc4ccccc4)CC3)cc2o1"
## Output 10.2

## Input Provide one value: measured IC50 of "Cc1cc2ccc(OCCNC3CCN(Cc4ccccc4)CC3)cc2oc1=O"
## Output 7.53

## Input Provide one value: measured IC50 of "Cc1cc(=O)oc2cc(CNC3CCN(Cc4ccccc4)CC3)ccc12"
## Output 10.8

## Input Provide one value: measured IC50 of "CCOc1cc(=O)oc2cc(OCCNC3CCN(Cc4ccccc4)CC3)ccc12"
## Output 6.95

## Input Provide one value: measured IC50 of "Cc1c(Cl)c(=O)oc2cc(OCCNC3CCN(Cc4ccccc4)CC3)ccc12"
## Output 1.42

====

- testSystem: Amine oxidase [flavin-containing] B (Homo sapiens)
- Sequence (P27338 whole entry): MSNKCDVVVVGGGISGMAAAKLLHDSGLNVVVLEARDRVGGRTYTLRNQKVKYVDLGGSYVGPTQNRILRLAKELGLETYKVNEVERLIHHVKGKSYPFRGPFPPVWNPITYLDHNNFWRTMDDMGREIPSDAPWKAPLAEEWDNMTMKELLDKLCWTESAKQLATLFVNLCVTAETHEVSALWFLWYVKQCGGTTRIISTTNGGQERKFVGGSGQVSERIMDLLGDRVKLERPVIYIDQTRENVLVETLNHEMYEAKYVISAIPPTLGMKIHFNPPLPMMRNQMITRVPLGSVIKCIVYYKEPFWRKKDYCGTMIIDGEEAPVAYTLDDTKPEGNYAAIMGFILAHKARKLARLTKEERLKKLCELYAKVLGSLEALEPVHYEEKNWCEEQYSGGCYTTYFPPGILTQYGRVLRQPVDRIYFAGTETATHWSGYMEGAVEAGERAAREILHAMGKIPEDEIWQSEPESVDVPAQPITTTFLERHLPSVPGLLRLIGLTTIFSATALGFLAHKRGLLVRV
Recorded IC50 split into classes group 1 = under 10 µM, group 2 = from 10 µM up to 30 µM, group 3 = 30 µM and over

Cc1cc(=O)oc2cc(CNC3CCN(Cc4ccccc4)CC3)ccc12 | group 1
COc1cc(=O)oc2cc(OCCNC3CCN(Cc4ccccc4)CC3)ccc12 | group 3
O=c1ccc2ccc(OCCNC3CCN(Cc4ccccc4)CC3)cc2o1 | group 1

## Input Class label required: "Cc1c(C)c2ccc(OCCNC3CCN(Cc4ccccc4)CC3)cc2oc1=O"
## Output group 2

## Input Class label required: "Cc1c(Cl)c(=O)oc2cc(OCCNC3CCN(Cc4ccccc4)CC3)ccc12"
## Output group 2

## Input Class label required: "Cc1cc(=O)oc2cc(CNCCC3CCN(Cc4ccccc4)CC3)ccc12"
## Output group 3

## Input Class label required: "O=c1ccc2ccc(OCCCNC3CCN(Cc4ccccc4)CC3)cc2o1"
## Output group 2

## Input Class label required: "CCOc1cc(=O)oc2cc(OCCNC3CCN(Cc4ccccc4)CC3)ccc12"
## Output group 3

## Input Class label required: "Cc1cc2ccc(OCCNC3CCN(Cc4ccccc4)CC3)cc2oc1=O"
## Output group 1

## Input Class label required: "O=c1cc(-c2ccccc2)c2ccc(OCCNC3CCN(Cc4ccccc4)CC3)cc2o1"
## Output group 3

====

- testSystem: Amine oxidase [flavin-containing] B (Homo sapiens, UniProt P27338)
- Sequence (P27338 whole entry): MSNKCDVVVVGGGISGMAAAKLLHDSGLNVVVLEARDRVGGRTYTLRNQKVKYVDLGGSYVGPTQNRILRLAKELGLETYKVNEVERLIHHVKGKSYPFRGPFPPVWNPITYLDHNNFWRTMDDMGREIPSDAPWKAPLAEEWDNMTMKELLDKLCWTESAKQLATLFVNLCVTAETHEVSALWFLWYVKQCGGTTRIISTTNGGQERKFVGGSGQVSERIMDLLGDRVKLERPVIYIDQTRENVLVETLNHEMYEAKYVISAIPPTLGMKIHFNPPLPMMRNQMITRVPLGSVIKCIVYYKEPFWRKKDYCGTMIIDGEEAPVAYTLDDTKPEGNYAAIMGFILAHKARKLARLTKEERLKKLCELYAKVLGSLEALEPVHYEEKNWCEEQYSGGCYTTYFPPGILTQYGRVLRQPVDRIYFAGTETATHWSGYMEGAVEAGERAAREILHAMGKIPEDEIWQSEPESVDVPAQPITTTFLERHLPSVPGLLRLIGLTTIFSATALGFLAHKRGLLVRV
pIC50 overview
Hey, just a heads up that pIC50 is the negative log base 10 of the concentration in molar.

These recorded examples may help you get a feel for the data.
O=c1oc2cc(OCCNC3CCN(Cc4ccccc4)CC3)ccc2c2c1CCCC2 | 5.58
Cc1cc(=O)oc2cc(OCCNC3CCN(Cc4ccccc4)CC3)ccc12 | 5.56
O=c1cc(Cl)c2ccc(OCCNC3CCN(Cc4ccccc4)CC3)cc2o1 | 4.47

## Input Provide one value: measured pIC50 of "O=c1cc(C(F)(F)F)c2ccc(OCCNC3CCN(Cc4ccccc4)CC3)cc2o1"
## Output 4.55

====

- assayName: Cytotoxicity against human SH-SY5Y cells assessed as cell viability at 25 uM after 24 hrs by MTT assay
- Assay type: cell-based
- conditionSet: read-out: Activity
measurementType: viability at 24 h, 25 µM (%)
Quick note: give the figure in %, leave out the unit.

## Input Provide one value: measured viability at 24 h, 25 µM of "O=c1oc2cc(OCCNC3CCN(Cc4ccccc4)CC3)ccc2c2c1CCCC2"
## Output 94.6

====

- assayName: Cytotoxicity against human SH-SY5Y cells assessed as cell viability at 10 uM after 24 hrs by MTT assay
- Format: cell-based
- conditionSet: read-out: Activity
measurementType: viability at 24 h, 10 µM
# number then unit; no other words

## Input Provide one value: measured viability at 24 h, 10 µM of "O=c1oc2cc(OCCNC3CCN(Cc4ccccc4)CC3)ccc2c2c1CCCC2"
## Output 97.5%

====

- assayName: Cytotoxicity against human SH-SY5Y cells assessed as cell viability at 1 uM after 24 hrs by MTT assay
- Assay type: cell-based
- conditionSet: read-out: Activity
measurementType: viability at 24 h, 1 µM (%)
Quick note: give the figure in %, leave out the unit.

## Input Provide one value: measured viability at 24 h, 1 µM of "O=c1oc2cc(OCCNC3CCN(Cc4ccccc4)CC3)ccc2c2c1CCCC2"
## Output 99.6
